// max response lookup, one value per entry
ASSAY OVERVIEW: qHTS assay for small molecule agonists of retinoid X receptor alpha signaling (AID 588544)
ASSAY CONTEXT: HEK293T RXRa-UAS-bla, beta-lactamase reporter, 18 h; 530 nm emission
From the text: NIH Chemical Genomics Center [NCGC] U.S. Environmental Protection Agency [EPA] National Institutes of Environmental Health Sciences [NIEHS] National Toxicology Program [NTP] NCGC Assay Overview The Retinoid X receptor (RXR), a nuclear hormone receptor is expressed in liver, spleen, placenta, epidermis, central nervous system. […]
Inconclusive results are not listed.
READOUT: max response (%)

[[record]]
molecule = "CCOC(=O)Nc1cccc(OC(=O)Nc2ccccc2)c1"
numeric_value = 2.58

[[record]]
molecule = "N#Cc1c[nH]cc1-c1cccc2c1OC(F)(F)O2"
numeric_value = -13.3

[[record]]
molecule = "CCNC(=O)NC(=O)/C(C#N)=N/OC"
numeric_value = 5.29

[[record]]
molecule = "CCC(C)(c1ccc(O)cc1)c1ccc(O)cc1"
numeric_value = 3.09

[[record]]
molecule = "Cn1c(-c2ccccc2)cc(-c2ccccc2)[n+]1C"
numeric_value = 12.1

[[record]]
molecule = "CCOP(=S)(Oc1cnc(C(C)(C)C)nc1)OC(C)C (configuration not stated)"
numeric_value = -5.29

[[record]]
molecule = "CCOP(N)(=O)Oc1ccc(SC)c(C)c1 (configuration not stated)"
numeric_value = -16.6

[[record]]
molecule = "O=C1NCCN1Cc1ccc(Cl)nc1"
numeric_value = -6.75

[[record]]
molecule = "CC1(C)C(C=C(Cl)Cl)[C@H]1C(=O)OCc1cccc(Oc2ccccc2)c1 (some centres not stated)"
numeric_value = -6.06

[[record]]
molecule = "CNC(=O)Oc1cc(C)cc(C(C)C)c1"
numeric_value = -15.4

[[record]]
molecule = "Nc1ccc([N+](=O)[O-])cc1Cl"
numeric_value = -7.96

[[record]]
molecule = "CS(=O)(=O)NC(=O)c1cc(Oc2ccc(C(F)(F)F)cc2Cl)ccc1[N+](=O)[O-]"
numeric_value = 1.68

[[record]]
molecule = "CNC(=O)/C=C(\\C)OP(=O)(OC)OC"
numeric_value = -13.8

[[record]]
molecule = "CCOP(=O)(OCC)Oc1ccc2c(C)c(Cl)c(=O)oc2c1"
numeric_value = 2.41

[[record]]
molecule = "Cc1ccccc1C(=O)Nc1cccc(OC(C)C)c1"
numeric_value = -12.9

[[record]]
molecule = "CC1(C)CON(Cc2ccccc2Cl)C1=O"
numeric_value = 5.44

[[record]]
molecule = "N#Cc1cc(Br)c(O)c(Br)c1"
numeric_value = -9.28

[[record]]
molecule = "ClC1=C(Cl)C2(Cl)C3C4OC4C(Cl)C3C1(Cl)C2(Cl)Cl (configuration not stated)"
numeric_value = 2.4

[[record]]
molecule = "Brc1c(Br)c(Br)c(Br)c(Br)c1Br"
numeric_value = -7.75

[[record]]
molecule = "CCCCC(CC)COC(=O)Cl (configuration not stated)"
numeric_value = -16.3

[[record]]
molecule = "CC(C)C(=O)OCC(C)(C)C(OC(=O)C(C)C)C(C)C (configuration not stated)"
numeric_value = -9.99

[[record]]
molecule = "Nc1cnn(-c2ccccc2)c(=O)c1Cl"
numeric_value = -6.12

[[record]]
molecule = "COc1ccc(O)c(C(C)(C)C)c1"
numeric_value = -14.4

[[record]]
molecule = "CCOS(=O)(=O)OCC"
numeric_value = -16.7

[[record]]
molecule = "Cc1cccc2sc3nncn3c12"
numeric_value = 0.611

[[record]]
molecule = "CCC[CH2][Sn]([CH2]CCC)([CH2]CCC)[O][Sn]([CH2]CCC)([CH2]CCC)[CH2]CCC"
numeric_value = -23.3

[[record]]
molecule = "CCc1cc(C)cc(CC)c1-c1c(OC(=O)C(C)(C)C)n2n(c1=O)CCOCC2"
numeric_value = -12.9


---

TEST TARGET: Peroxisome proliferator-activated receptor alpha (Homo sapiens) (UniProt Q07869)
Sequence (Q07869 whole entry, looked up): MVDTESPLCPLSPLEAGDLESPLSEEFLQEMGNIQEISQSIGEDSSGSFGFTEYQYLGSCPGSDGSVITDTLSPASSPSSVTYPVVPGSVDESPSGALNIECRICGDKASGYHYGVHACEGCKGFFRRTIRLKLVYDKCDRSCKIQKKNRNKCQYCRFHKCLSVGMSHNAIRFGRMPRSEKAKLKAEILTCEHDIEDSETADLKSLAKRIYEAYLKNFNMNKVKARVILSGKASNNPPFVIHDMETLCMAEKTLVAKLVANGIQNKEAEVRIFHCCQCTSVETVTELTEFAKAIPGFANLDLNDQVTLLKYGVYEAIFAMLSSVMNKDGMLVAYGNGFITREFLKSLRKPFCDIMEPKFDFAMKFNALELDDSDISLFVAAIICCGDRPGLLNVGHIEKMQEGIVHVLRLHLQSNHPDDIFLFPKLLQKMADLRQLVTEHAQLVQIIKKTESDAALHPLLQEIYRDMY
ASSAY OVERVIEW: qHTS assay for small molecule agonists of the peroxisome proliferator-activated receptor alpha (PPARalpha) signaling pathway (AID 651778); also: % of control where 0% means no effect
ASSAY CONTEXT: PathHunter PPARalpha complementation, chemiluminescence, 6 h; stronger effect = higher value
READOUT: max response (%)

[[record]]
molecule = "OC(Cn1cncn1)(c1ccc(F)cc1)c1ccccc1F (stereo not given)"
test_target = "Peroxisome proliferator-activated receptor alpha (Homo sapiens) (UniProt Q07869)"
numeric_value = -2.15

[[record]]
molecule = "O=C(O)C1(O)c2ccccc2-c2ccc(Cl)cc21 (stereo not given)"
test_target = "Peroxisome proliferator-activated receptor alpha (Homo sapiens) (UniProt Q07869)"
numeric_value = 13.5

[[record]]
molecule = "CCNc1nc(NCC)nc(SC)n1"
test_target = "Peroxisome proliferator-activated receptor alpha (Homo sapiens) (UniProt Q07869)"
numeric_value = 0.186

[[record]]
molecule = "COC(=O)/C=C(\\C)OP(=O)(OC)OC"
test_target = "Peroxisome proliferator-activated receptor alpha (Homo sapiens) (UniProt Q07869)"
numeric_value = -1.45

[[record]]
molecule = "FC(F)(F)c1ccc(OCCCOc2c(Cl)cc(OCC=C(Cl)Cl)cc2Cl)nc1"
test_target = "Peroxisome proliferator-activated receptor alpha (Homo sapiens) (UniProt Q07869)"
numeric_value = -0.598

[[record]]
molecule = "COC(=O)N(OC)c1ccccc1COc1ccn(-c2ccc(Cl)cc2)n1"
test_target = "Peroxisome proliferator-activated receptor alpha (Homo sapiens) (UniProt Q07869)"
numeric_value = -0.36

[[record]]
molecule = "C=C(C)CN(CC)c1c([N+](=O)[O-])cc(C(F)(F)F)cc1[N+](=O)[O-]"
test_target = "Peroxisome proliferator-activated receptor alpha (Homo sapiens) (UniProt Q07869)"
numeric_value = 0.658

[[record]]
molecule = "CCOC(=O)Nc1cccc(OC(=O)Nc2ccccc2)c1"
test_target = "Peroxisome proliferator-activated receptor alpha (Homo sapiens) (UniProt Q07869)"
numeric_value = -0.828

[[record]]
molecule = "O=C1c2ccccc2C(=O)N1SC(Cl)(Cl)Cl"
test_target = "Peroxisome proliferator-activated receptor alpha (Homo sapiens) (UniProt Q07869)"
numeric_value = 9.12

[[record]]
molecule = "CC/C(=N\\OC/C=C/Cl)C1=C(O)CC(C2CCOCC2)CC1=O (stereo not given)"
test_target = "Peroxisome proliferator-activated receptor alpha (Homo sapiens) (UniProt Q07869)"
numeric_value = -0.709

[[record]]
molecule = "CC(C)[C@@H](Nc1ccc(C(F)(F)F)cc1Cl)C(=O)OC(C#N)c1cccc(Oc2ccccc2)c1 (stereo not given in full)"
test_target = "Peroxisome proliferator-activated receptor alpha (Homo sapiens) (UniProt Q07869)"
numeric_value = -1.14

[[record]]
molecule = "CC(C)(C)C(=O)[C@H](Oc1ccc(Cl)cc1)n1cncn1"
test_target = "Peroxisome proliferator-activated receptor alpha (Homo sapiens) (UniProt Q07869)"
numeric_value = -2.36

[[record]]
molecule = "CCOc1nc(C(Cl)(Cl)Cl)ns1"
test_target = "Peroxisome proliferator-activated receptor alpha (Homo sapiens) (UniProt Q07869)"
numeric_value = -0.167

[[record]]
molecule = "CCOP(=S)(OCC)SCn1c(=O)oc2cc(Cl)ccc21"
test_target = "Peroxisome proliferator-activated receptor alpha (Homo sapiens) (UniProt Q07869)"
numeric_value = -0.132

[[record]]
molecule = "CCOP(=O)(OCC)SCSCC"
test_target = "Peroxisome proliferator-activated receptor alpha (Homo sapiens) (UniProt Q07869)"
numeric_value = -4.89


---

TEST TARGET: Thyroid hormone receptor beta (Homo sapiens) (UniProt P10828)
Sequence (P10828 whole entry, looked up): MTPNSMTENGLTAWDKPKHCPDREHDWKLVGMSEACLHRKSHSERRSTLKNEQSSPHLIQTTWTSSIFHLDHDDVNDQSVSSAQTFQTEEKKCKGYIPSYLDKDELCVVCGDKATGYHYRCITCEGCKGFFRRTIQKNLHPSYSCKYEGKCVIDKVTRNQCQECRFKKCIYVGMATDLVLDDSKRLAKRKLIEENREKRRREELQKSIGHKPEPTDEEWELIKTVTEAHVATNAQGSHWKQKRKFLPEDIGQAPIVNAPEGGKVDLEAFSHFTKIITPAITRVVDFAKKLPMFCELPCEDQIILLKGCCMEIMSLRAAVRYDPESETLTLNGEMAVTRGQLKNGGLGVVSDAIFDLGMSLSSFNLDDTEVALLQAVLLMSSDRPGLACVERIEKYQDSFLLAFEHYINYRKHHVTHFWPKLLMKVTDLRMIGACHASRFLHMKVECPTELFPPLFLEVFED
ASSAY OVERVIEW: qHTS assay for small molecule antagonists of thyroid hormone receptor beta signaling (AID 588547);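 also: cells stimulated with 0.4 nM T3 agonist during compound exposure; % is scaled to controls: 0 for no effect and ±100 for the full control effect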
ASSAY CONTEXT: TR-UAS-bla HEK293, beta-lactamase ratio, antagonist mode, 18 h
Inconclusive results are not listed.
Attribute: activity change % (negative = inhibition)
READOUT: activity change % (negative = inhibition) (%)

[[record]]
compound = "CNC(=O)Oc1cccc2c1OC(C)(C)C2O (stereo unspecified)"
numeric_value = 7.05

[[record]]
compound = "C/C(=N\\NC(=O)Nc1cc(F)cc(F)c1)c1ncccc1C(=O)O"
numeric_value = -6.39

[[record]]
compound = "CC(C)N(C(=O)SCC(Cl)=C(Cl)Cl)C(C)C"
numeric_value = -15.2

[[record]]
compound = "CCOP(=O)(OCC)SCSCC"
numeric_value = 4.37

[[record]]
compound = "CCC(C)(C)c1cc(-n2nc3ccccc3n2)c(O)c(C(C)(C)CC)c1"
numeric_value = 12

[[record]]
compound = "CCCCC(CC)CO[N+](=O)[O-] (stereo unspecified)"
numeric_value = -3.31


---

System: SC27B
ASSAY OVERVIEW: qHTS profiling for inhibitors of Plasmodium falciparum proliferation (AID 504749); also: nearly all actives have a fitted effect of over 60% in size
ASSAY CONTEXT: P. falciparum in erythrocytes, SYBR Green DNA, 72 h; series mostly up to 28.7 µM
Results filed as inconclusive are left out. Calls of active or inactive are those of the source. Calls follow the shape of the dose curve; as a rule, active = well fitted inhibition curve with a large enough effect; inconclusive = small, poorly fitted or top-dose-only effect; inactive = flat fitted curve, though single readings scatter.
Outcomes: true for active, false for inactive

[[record]]
compound = "CN1C2CCC1C(C(=O)O)C(OC(=O)c1ccccc1)C2 (configuration not stated)"
label_class = "false"

[[record]]
compound = "CCCN1CCCC2Cc3nc(N)ncc3CC21 (configuration not stated)"
label_class = "false"

[[record]]
compound = "C=CC[C@]1(O)CCC2C3CCC4=CCCCC4C3CCC21C (some centres not stated)"
label_class = "false"

[[record]]
compound = "CCCCCc1cc(O)c2c(c1)OC(C)(C)C1CC=C(C)CC21 (configuration not stated)"
label_class = "true"

[[record]]
compound = "C[C@H](N)Cc1ccccc1"
label_class = "false"

[[record]]
compound = "CC(=O)O[C@H]1C[C@H](O[C@H]2[C@@H](O)CC(O[C@H]3[C@@H](O)C[C@H](O[C@H]4CC[C@@]5(C)[C@H](CC[C@@H]6[C@@H]5CC[C@]5(C)[C@@H](C7=CC(=O)OC7)CC[C@]65O)C4)O[C@@H]3C)O[C@@H]2C)O[C@H](C)[C@H]1O[C@@H]1O[C@H](CO)[C@@H](O)[C@H](O)[C@H]1O (some centres not stated)"
label_class = "false"

[[record]]
compound = "C=CC[N+]1(C)CCC23c4c5ccc(O)c4O[C@H]2C(=O)CC[C@@]3(O)C1C5 (some centres not stated)"
label_class = "false"

